# subject_of_test: Human neutrophil elastase (Homo sapiens)
# Sequence: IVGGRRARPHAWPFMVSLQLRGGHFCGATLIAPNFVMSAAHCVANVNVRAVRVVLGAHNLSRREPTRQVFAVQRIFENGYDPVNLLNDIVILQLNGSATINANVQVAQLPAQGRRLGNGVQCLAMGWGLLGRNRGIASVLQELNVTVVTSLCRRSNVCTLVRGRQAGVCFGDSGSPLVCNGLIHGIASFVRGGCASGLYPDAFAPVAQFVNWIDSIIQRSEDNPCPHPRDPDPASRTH
# assay: filter
# stated_conditions: apparent Kd
quantity_measured: pKd
Reminder that pKd means the negative base-10 logarithm of the concentration expressed in mol/L.

What value of pKd has been recorded for this entry: CCCCTGCAGGTGATTTTGCTCAAGTNNNNNNNNNNNNNNNNNNNNNNNNNNNNNNNNNNNNNNNNAGTATCGCTAATCAGGCGGATC [random ssDNA pool]
6.60

Where these numbers come from: patent US5472841
